Hi there, I'd appreciate the recorded agonist activity: Akt phosphorylation in Caki-1 cells, Mean (%) (PBS = 0%, HGF/SF = 100%) for every entry that follows.
# TARGET: c-Met on cancer cell lines (Caki-1 renal cell carcinoma; MKN45 c-Met-amplified gastric cancer) (UniProt P08581 25-1390)
# Sequence (P08581 25-1390): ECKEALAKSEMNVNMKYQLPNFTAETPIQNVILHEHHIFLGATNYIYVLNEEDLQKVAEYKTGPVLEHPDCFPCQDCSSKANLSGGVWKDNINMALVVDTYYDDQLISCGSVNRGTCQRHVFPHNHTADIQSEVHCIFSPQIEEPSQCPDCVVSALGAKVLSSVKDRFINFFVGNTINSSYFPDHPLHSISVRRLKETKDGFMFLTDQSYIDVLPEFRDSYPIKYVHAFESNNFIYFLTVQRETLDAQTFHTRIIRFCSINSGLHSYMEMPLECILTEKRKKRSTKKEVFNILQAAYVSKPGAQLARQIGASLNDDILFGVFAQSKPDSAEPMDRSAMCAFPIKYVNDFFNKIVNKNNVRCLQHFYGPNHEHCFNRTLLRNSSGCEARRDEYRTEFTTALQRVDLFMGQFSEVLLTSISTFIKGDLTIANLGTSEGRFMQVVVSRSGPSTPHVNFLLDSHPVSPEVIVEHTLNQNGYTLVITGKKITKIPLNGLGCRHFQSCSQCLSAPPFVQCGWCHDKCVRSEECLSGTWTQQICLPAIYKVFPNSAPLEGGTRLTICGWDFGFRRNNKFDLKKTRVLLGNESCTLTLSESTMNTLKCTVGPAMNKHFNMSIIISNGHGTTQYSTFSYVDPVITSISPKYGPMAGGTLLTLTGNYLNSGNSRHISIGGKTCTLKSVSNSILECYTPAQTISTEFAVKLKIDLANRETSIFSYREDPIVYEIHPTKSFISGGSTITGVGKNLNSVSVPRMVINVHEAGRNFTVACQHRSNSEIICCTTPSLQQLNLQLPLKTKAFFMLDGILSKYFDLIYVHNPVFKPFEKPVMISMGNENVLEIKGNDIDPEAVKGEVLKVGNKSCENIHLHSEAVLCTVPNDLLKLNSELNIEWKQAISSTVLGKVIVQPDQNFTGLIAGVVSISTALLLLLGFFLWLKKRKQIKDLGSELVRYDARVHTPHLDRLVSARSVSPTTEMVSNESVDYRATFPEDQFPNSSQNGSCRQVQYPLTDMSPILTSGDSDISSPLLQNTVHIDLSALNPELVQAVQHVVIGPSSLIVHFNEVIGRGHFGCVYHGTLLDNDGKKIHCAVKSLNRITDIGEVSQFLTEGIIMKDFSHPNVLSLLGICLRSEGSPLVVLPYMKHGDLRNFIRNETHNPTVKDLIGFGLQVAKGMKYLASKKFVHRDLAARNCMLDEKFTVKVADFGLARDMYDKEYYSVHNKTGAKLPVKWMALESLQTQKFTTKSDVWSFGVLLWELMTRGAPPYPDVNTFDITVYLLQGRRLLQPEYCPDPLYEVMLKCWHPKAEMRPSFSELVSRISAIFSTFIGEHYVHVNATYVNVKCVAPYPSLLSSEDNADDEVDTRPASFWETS
# TEST DESCRIPTION: cell-based or functional assay
One number for each entry, in %.

Please supply agonist activity: Akt phosphorylation in Caki-1 cells, Mean (%) (PBS = 0%, HGF/SF = 100%) for each of the following items, keeping them in order.
1. 1F12_L96D, full-length human IgG1 (antibody, V domains shown) VH: EVQLLESGGGLVQPGGSLRLSCAASGFTFSNYAMSWVRQAPGKGLEWVSGISYSGGSTYYADSVKGRFTISRDNSKNTLYLQMNSLRAEDTAVYYCAKASRSCQRPACSYANGMDVWGQGTLVTVSS VL: QSVLTQPPSASGTPGQRVTISCTGSSSNIGNNYVTWYQQLPGTAPKLLIYYNNHRPSGVPDRFSGSKSGTSASLAISGLQSEDEADYYCGSWDYSLSADVFGGGTKLTVL
2. 1F12_H60N, full-length human IgG1 (antibody, V domains shown) VH: EVQLLESGGGLVQPGGSLRLSCAASGFTFSNYAMSWVRQAPGKGLEWVSGISYSGGSTYYNDSVKGRFTISRDNSKNTLYLQMNSLRAEDTAVYYCAKASRSCQRPACSYANGMDVWGQGTLVTVSS VL: QSVLTQPPSASGTPGQRVTISCTGSSSNIGNNYVTWYQQLPGTAPKLLIYYNNHRPSGVPDRFSGSKSGTSASLAISGLQSEDEADYYCGSWDYSLSAYVFGGGTKLTVL
3. 1F12 (parent antibody), full-length human IgG1 (antibody, V domains shown) VH: EVQLLESGGGLVQPGGSLRLSCAASGFTFSNYAMSWVRQAPGKGLEWVSGISYSGGSTYYADSVKGRFTISRDNSKNTLYLQMNSLRAEDTAVYYCAKASRSCQRPACSYANGMDVWGQGTLVTVSS VL: QSVLTQPPSASGTPGQRVTISCTGSSSNIGNNYVTWYQQLPGTAPKLLIYYNNHRPSGVPDRFSGSKSGTSASLAISGLQSEDEADYYCGSWDYSLSAYVFGGGTKLTVL

21.2
27.7
18.2
